Biological target: IP receptor (Homo sapiens)
Sequence (P43119 whole entry): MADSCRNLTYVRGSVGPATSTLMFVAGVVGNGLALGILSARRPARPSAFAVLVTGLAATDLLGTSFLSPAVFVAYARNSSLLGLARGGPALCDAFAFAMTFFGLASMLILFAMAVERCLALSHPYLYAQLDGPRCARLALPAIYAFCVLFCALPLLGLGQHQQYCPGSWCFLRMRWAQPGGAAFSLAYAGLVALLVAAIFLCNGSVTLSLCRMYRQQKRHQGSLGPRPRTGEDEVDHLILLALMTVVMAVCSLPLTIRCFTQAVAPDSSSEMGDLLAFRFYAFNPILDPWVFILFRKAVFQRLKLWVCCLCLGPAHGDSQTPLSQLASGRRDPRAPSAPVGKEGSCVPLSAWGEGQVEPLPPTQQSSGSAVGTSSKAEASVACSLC
Experiment: cAMP accumulation in CHO cells stably expressing the IP receptor (CHO-IP), PerkinElmer AlphaScreen assay
Details: agonist activity, 1 hour at room temperature, 4-parameter logistic fit
# reported EC50; entries follow
assay.endpoint: EC50 (nM)

{"smiles.structure": "O=C(O)CCCCCCn1c(C2CC2)cc2nc(-c3ccc(Cl)cc3)c(-c3ccc(Cl)cc3)nc21", "test.target": "IP receptor (Homo sapiens)", "experimental.result": 5.6}
{"smiles.structure": "Cc1ccc(-c2nc3cc(CCCCC(=O)O)[nH]c3nc2-c2ccc(C)cc2)cc1", "test.target": "IP receptor (Homo sapiens)", "experimental.result": 320}
{"smiles.structure": "Cc1ccc(-c2nc3cc(CCO)n(CCCCCCC(=O)O)c3nc2-c2ccc(C)cc2)cc1", "test.target": "IP receptor (Homo sapiens)", "experimental.result": 1.6}
{"smiles.structure": "Cc1ccc(-c2nc3cc(C(F)(F)F)n(CCCCCCC(=O)O)c3nc2-c2ccc(C)cc2)cc1", "test.target": "IP receptor (Homo sapiens)", "experimental.result": 3}
{"smiles.structure": "Cc1ccc(-c2nc3cc(C(C)C)n(CCCCCCC(=O)O)c3nc2-c2ccc(C)cc2)cc1", "test.target": "IP receptor (Homo sapiens)", "experimental.result": 1.8}
{"smiles.structure": "Cc1ccc(-c2nc3cc(C4CC4)n(CCCCCCC(=O)O)c3nc2-c2cccc(C)c2)cc1", "test.target": "IP receptor (Homo sapiens)", "experimental.result": 37.1}
{"smiles.structure": "CCc1ccc(-c2nc3cc(C4CC4)n(CCCCCCC(=O)O)c3nc2-c2ccc(C)cc2)cc1", "test.target": "IP receptor (Homo sapiens)", "experimental.result": 6.8}
{"smiles.structure": "COCc1cn(CCCCCCC(=O)O)c2nc(-c3ccc(C)cc3)c(-c3ccc(C)cc3)nc12", "test.target": "IP receptor (Homo sapiens)", "experimental.result": 4.2}

Values were extracted from patent US8937069B2.
